System: Streptococcus pyogenes
Assay: In vitro antimicrobial activity against Streptococcus pyogenes A 308
Type: functional
metric: MIC (µg/mL)
Your answer is read as µg/mL, so omit the unit and give the number.

Just so you know, measured MIC for `CO/N=C(/C(=O)N[C@@H]1C(=O)N2C(C(=O)[O-])=C(C[n+]3cccc(-c4cc(C(N)=O)nn4CCO)c3)CS[C@H]12)c1csc(N)n1` came out at 0.049

Just so you know, measured MIC for `CO/N=C(/C(=O)N[C@@H]1C(=O)N2C(C(=O)[O-])=C(C[n+]3cccc(-c4cc(N)n(CCO)n4)c3)CS[C@H]12)c1csc(N)n1` came out at 0.025

Just so you know, measured MIC for `CO/N=C(/C(=O)N[C@@H]1C(=O)N2C(C(=O)[O-])=C(C[n+]3cccc(-c4cc(CO)nn4CCO)c3)CS[C@H]12)c1csc(N)n1` came out at 0.049

Just so you know, measured MIC for `CO/N=C(/C(=O)N[C@@H]1C(=O)N2C(C(=O)[O-])=C(C[n+]3cccc(-c4cc(CO)[nH]n4)c3)CS[C@H]12)c1csc(N)n1` came out at 0.025

Just so you know, measured MIC for `CC(C)(O/N=C(\C(=O)N[C@@H]1C(=O)N2C(C(=O)[O-])=C(C[n+]3ccccc3)CS[C@H]12)c1csc(N)n1)C(=O)O` came out at 0.098

Just so you know, measured MIC for `CO/N=C(/C(=O)N[C@@H]1C(=O)N2C(C(=O)[O-])=C(C[n+]3cccc(-c4cc(C(N)=O)[nH]n4)c3)CS[C@H]12)c1csc(N)n1` came out at 0.013

Just so you know, measured MIC for `CO/N=C(/C(=O)N[C@@H]1C(=O)N2C(C(=O)[O-])=C(C[n+]3cccc(-c4cc(C(N)=O)nn4C)c3)CS[C@H]12)c1csc(N)n1` came out at 0.025

Just so you know, measured MIC for `CO/N=C(/C(=O)N[C@@H]1C(=O)N2C(C(=O)[O-])=C(C[n+]3cccc(-c4cc(C)[nH]n4)c3)CS[C@H]12)c1csc(N)n1` came out at 0.007

Just so you know, measured MIC for `CO/N=C(/C(=O)N[C@@H]1C(=O)N2C(C(=O)[O-])=C(C[n+]3cccc(-c4cc(N)n(C)n4)c3)CS[C@H]12)c1csc(N)n1` came out at 0.013

---

System: Enterococcus faecium
Experiment: In vitro antimicrobial activity against Streptococcus faecium MD 8b
Format: functional
Provide the recorded MIC for the entries that follow.
Your answer is read as µg/mL, so omit the unit and give the number.

The value of MIC recorded for `CO/N=C(/C(=O)N[C@@H]1C(=O)N2C(C(=O)[O-])=C(C[n+]3cccc(-c4cc(N)n(CCO)n4)c3)CS[C@H]12)c1csc(N)n1` when tested on Enterococcus faecium reads 1.56

The value of MIC recorded for CO/N=C(/C(=O)NC1C(=O)N2C(C(=O)[O-])=C(C[n+]3cccc4c3CCC4)CSC12)c1csc(N)n1 (centres undefined) when tested on Enterococcus faecium reads 1.56

The value of MIC recorded for `CO/N=C(/C(=O)N[C@@H]1C(=O)N2C(C(=O)[O-])=C(C[n+]3cccc(-c4cc[nH]n4)c3)CS[C@H]12)c1csc(N)n1` when tested on Enterococcus faecium reads 6.25

---

Tested on: Enterobacter cloacae
Test: In vitro antimicrobial activity against Enterobacter 1321 E
Assay type: functional
Provide the recorded MIC for the entries that follow.
Your answer is read as µg/mL, so omit the unit and give the number.

Just so you know, measured MIC for `CO/N=C(/C(=O)N[C@@H]1C(=O)N2C(C(=O)[O-])=C(C[n+]3cccc(-c4cc(CO)[nH]n4)c3)CS[C@H]12)c1csc(N)n1` came out at 0.049

Just so you know, measured MIC for `CC(C)(O/N=C(\C(=O)N[C@@H]1C(=O)N2C(C(=O)[O-])=C(C[n+]3ccccc3)CS[C@H]12)c1csc(N)n1)C(=O)O` came out at 0.025

Just so you know, measured MIC for `CO/N=C(/C(=O)N[C@@H]1C(=O)N2C(C(=O)[O-])=C(C[n+]3cccc(-c4cc(C)[nH]n4)c3)CS[C@H]12)c1csc(N)n1` came out at 0.013

Just so you know, measured MIC for `CO/N=C(/C(=O)N[C@@H]1C(=O)N2C(C(=O)[O-])=C(C[n+]3cccc(-c4cc(N)n(C)n4)c3)CS[C@H]12)c1csc(N)n1` came out at 0.025

Just so you know, measured MIC for `CO/N=C(/C(=O)N[C@@H]1C(=O)N2C(C(=O)[O-])=C(C[n+]3cccc(-c4cc(C(N)=O)nn4CCO)c3)CS[C@H]12)c1csc(N)n1` came out at 0.049

Just so you know, measured MIC for `CO/N=C(/C(=O)N[C@@H]1C(=O)N2C(C(=O)[O-])=C(C[n+]3cccc(-c4cc[nH]n4)c3)CS[C@H]12)c1csc(N)n1` came out at 0.098

Just so you know, measured MIC for `CO/N=C(/C(=O)N[C@@H]1C(=O)N2C(C(=O)[O-])=C(C[n+]3cccc(-c4cc(C(N)=O)nn4C)c3)CS[C@H]12)c1csc(N)n1` came out at 0.025

Measured values drawn from ChEMBL document CHEMBL1132901 for this set.
